- measurement target: UniProt:P01116
- assay text: Binding to KRAS by surface plasmon resonance (SPR), Single Cycle Kinetics
- test settings: SPR Single Cycle Kinetics, GDP-bound KRAS wild-type protein, 1:1 binding model; read-out: KRAS KD
*1 amine or outer side, *2 acyl side, *3 side chain or, on linkers, in order; H or OH if unused. Where a SMILES comes first, the peptide text is derived from it. Bridges are numbered along the chain shown (N, C = ends). [ ]: non-standard residue; d: D form. The star is where a group is joined. hPhe(3-Cl-4-CF3) = N[C@@H](CCc1ccc(C(F)(F)F)c(Cl)c1)C(=O)O; X38 = C#CCN([C@@H](Cc1ccc(C(F)(F)F)cc1)C(=O)[*:2])[*:1]; NPrPhe(4-CF3) = CCCN[C@@H](Cc1ccc(C(F)(F)F)cc1)C(=O)O; Pip(4,4-F2) = O=C(O)[C@@H]1CC(F)(F)CCN1; NMeGly(cPent) = CN[C@H](C(=O)O)C1CCCC1; Pro(4,4-F2) = O=C(O)[C@@H]1CC(F)(F)CN1; NMeD = CN[C@@H](CC(=O)O)C(=O)O; NMeL = CN[C@@H](CC(C)C)C(=O)O; Ac6c = NC1(C(=O)O)CCCCC1; Morpholide = C1CN(*)CCO1; NMeA = CN[C@@H](C)C(=O)O; Ac5c = NC1(C(=O)O)CCCC1; Aze = O=C(O)[C@@H]1CCN1; Sar = CNCC(=O)O
The following compounds are shown together with reported pKd values.
Convention used: pKd is expressed as -log10 of the molar concentration.

Answered examples (6):
Q: Give pKd; test system UniProt:P01116; compound CCCN1C(=O)CN(C)C(=O)CN(C)C(=O)[C@H]([C@@H](C)CC)NC(=O)[C@H](CC(C)C)N(C)C(=O)C[C@@H](C(=O)N2CCOCC2)N(C)C(=O)[C@H](C2CCCC2)N(C)C(=O)C2(CCCCC2)NC(=O)[C@@H]2CCCN2C(=O)[C@H](CCc2ccc(C(F)(F)F)c(Cl)c2)NC(=O)CN(C)C(=O)[C@@H]1Cc1ccc(C(F)(F)F)cc1 [PP0231] ([NMeL]I[Sar][Sar][NPrPhe(4-CF3)][Sar][hPhe(3-Cl-4-CF3)]P[Ac6c][NMeGly(cPent)][NMeD]-Morpholide; lactam N-11)
Result: 9.26

Q: Consider the compound C#CCN1C(=O)[C@@H]2CCN2C(=O)[C@H](C)N(C)C(=O)[C@H]([C@@H](C)CC)NC(=O)[C@H](CC(C)C)N(C)C(=O)C[C@@H](C(=O)N2CCOCC2)N(C)C(=O)[C@H](C2CCCC2)N(C)C(=O)C2(CCCC2)NC(=O)[C@@H]2CCCN2C(=O)[C@H](CCc2ccc(C(F)(F)F)c(Cl)c2)NC(=O)CN(C)C(=O)[C@@H]1Cc1ccc(C(F)(F)F)cc1 [PP0116] ([NMeL]I[NMeA][Aze][X38][Sar][hPhe(3-Cl-4-CF3)]P[Ac5c][NMeGly(cPent)][NMeD]-Morpholide; lactam N-11) tested on UniProt:P01116; state its pKd.
Result: 9.57

Q: Look up UniProt:P01116 data: pKd of "CCO[C@@H]1C[C@H]2C(=O)NC3(CC(C)(C)C3)C(=O)N(C)[C@@H](C3CCCC3)C(=O)N(C)[C@H](C(=O)N(C)CC)CC(=O)N(C)[C@@H](CC)C(=O)N[C@@H]([C@@H](C)CC)C(=O)N(C)CC(=O)N(C)[C@H]3C/C=C\CCN(C3=O)[C@@H](Cc3ccc(C(F)(F)F)cc3)C(=O)N(C)CC(=O)N[C@@H](CCc3ccc(Cl)c(Cl)c3)C(=O)N2C1" , then report it.
Result: 9.59

Q: Given CCCN1C(=O)[C@@H]2CCN2C(=O)[C@H](C)N(C)C(=O)[C@H]([C@@H](C)CC)NC(=O)[C@H](CC(C)C)N(C)C(=O)C[C@@H](C(=O)N2CCOCC2)N(C)C(=O)[C@H](C2CCCC2)N(C)C(=O)C2(CCCC2)NC(=O)[C@@H]2CC(F)(F)CCN2C(=O)[C@H](CCc2ccc(C(F)(F)F)c(Cl)c2)NC(=O)CN(C)C(=O)[C@@H]1Cc1ccc(C(F)(F)F)cc1 [PP0285] ([NMeL]I[NMeA][Aze][NPrPhe(4-CF3)][Sar][hPhe(3-Cl-4-CF3)][Pip(4,4-F2)][Ac5c][NMeGly(cPent)][NMeD]-Morpholide; lactam N-11) , report its pKd on UniProt:P01116.
Result: 9.12

Q: Recall the reported pKd of "CCC[C@H]1C(=O)N[C@@H]([C@@H](C)CC)C(=O)N(C)CC(=O)N(C)[C@H]2C/C=C\CCN(C2=O)[C@@H](Cc2ccc(C)cc2)C(=O)N(C)CC(=O)N[C@@H](CCc2ccc(Cl)c(C(F)(F)F)c2)C(=O)N2C[C@H](OCC)C[C@H]2C(=O)NC2(CC(C)(C)C2)C(=O)N(C)[C@@H](C2CCCC2)C(=O)N(C)[C@H](C(=O)N(C)C)CC(=O)N1C" on UniProt:P01116 and write it down.
Result: 9.85

Q: Quote UniProt:P01116 pKd for entry CCCN1C(=O)[C@@H]2CCN2C(=O)CN(C)C(=O)[C@H]([C@@H](C)CC)NC(=O)[C@H](CC(C)C)N(C)C(=O)C[C@@H](C(=O)N(C)C)N(C)C(=O)[C@H](C2CCCC2)N(C)C(=O)C2(CCCC2)NC(=O)[C@@H]2CC(F)(F)CN2C(=O)[C@H](CCc2ccc(C(F)(F)F)c(Cl)c2)NC(=O)CN(C)C(=O)[C@@H]1Cc1ccc(C(F)(F)F)cc1 [PP0442] ([NMeL]I[Sar][Aze][NPrPhe(4-CF3)][Sar][hPhe(3-Cl-4-CF3)][Pro(4,4-F2)][Ac5c][NMeGly(cPent)][NMeD]-NMe2; lactam N-11) .
Result: 10.43

New cases:
Q: Write down the reported pKd (system: UniProt:P01116) of "CCO[C@@H]1C[C@H]2C(=O)NC3(CC(C)(C)C3)C(=O)N(C)[C@@H](C3CCCC3)C(=O)N(C)[C@H](C(=O)N3CCCC3)CC(=O)N(C)[C@H]3CCC/C=C/c4ccc(cc4)C[C@@H](C(=O)N(C)CC(=O)N[C@@H](CCc4cc(F)c(C(F)(F)F)c(F)c4)C(=O)N2C1)N1CC/C=C\C[C@@H](C1=O)N(C)C(=O)CN(C1CC1)C(=O)[C@H]([C@@H](C)CC)NC3=O"
Result: 9.96

Q: Please report pKd with UniProt:P01116 for item "CCO[C@@H]1C[C@H]2C(=O)NC3(CCCC3)C(=O)N(C)[C@@H](C3CCCC3)C(=O)N(C)[C@H](C(=O)N(C)C)CC(=O)N(C)[C@@H](C)C(=O)N[C@@H]([C@@H](C)CC)C(=O)N(C)CC(=O)N(C)[C@H]3CCCCN(C3=O)[C@@H](Cc3ccc(C(F)(F)F)cc3)C(=O)N(C)CC(=O)N[C@@H](CCc3cc(F)c(C(F)(F)F)c(F)c3)C(=O)N2C1" .
Result: 11.00

Q: # lookup: UniProt:P01116 pKd, key = "CCC[C@H]1C(=O)N[C@@H]([C@@H](C)CC)C(=O)N(C2CC2)CC(=O)N(C)[C@H]2C/C=C\CCN(C2=O)[C@@H](CC2CCC(F)(F)CC2)C(=O)N(C)CC(=O)N[C@@H](CCc2ccc(Cl)c(Cl)c2)C(=O)N2C[C@H](OCC)C[C@H]2C(=O)NC2(CC(C)(C)C2)C(=O)N(C)[C@@H](C2CCCC2)C(=O)N(C)[C@H](C(=O)N(C)C)CC(=O)N1C"
Result: 8.72

Q: For UniProt:P01116, give pKd of the listed compound: "CCC[C@H]1C(=O)N[C@@H]([C@@H](C)CC)C(=O)N(C)CC(=O)N(C)[C@H]2C/C=C\CCN(C2=O)[C@@H](Cc2ccc(C(F)(F)F)cc2)C(=O)N(C)CC(=O)N[C@@H](CCc2ccc(C(F)(F)F)c(OC)c2)C(=O)N2C[C@H](OCC)C[C@H]2C(=O)NC2(CC(C)(C)C2)C(=O)N(C)[C@@H](CC(C)(C)C)C(=O)N(C)[C@H](C(=O)N(C)C)CC(=O)N1C"
Result: 10.00

====

The following compounds are shown together with reported pKd values.
- measurement target: GDP-bound KRAS wild-type protein (Homo sapiens, UniProt P01116)
- Sequence (P01116 whole entry): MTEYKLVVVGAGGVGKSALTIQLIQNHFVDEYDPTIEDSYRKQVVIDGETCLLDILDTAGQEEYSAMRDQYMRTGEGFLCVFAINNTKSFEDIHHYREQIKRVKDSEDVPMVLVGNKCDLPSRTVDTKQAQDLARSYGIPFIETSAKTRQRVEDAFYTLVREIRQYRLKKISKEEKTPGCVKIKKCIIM
- assay text: Binding to KRAS by surface plasmon resonance (SPR), Single Cycle Kinetics
- test settings: SPR Single Cycle Kinetics, GDP-bound KRAS wild-type protein, 1:1 binding model; read-out: KRAS KD
Where a SMILES comes first, the peptide text is derived from it. Bridges are numbered along the chain shown (N, C = ends). [ ]: non-standard residue; d: D form. hPhe(3-Cl-4-CF3) = N[C@@H](CCc1ccc(C(F)(F)F)c(Cl)c1)C(=O)O; NPrPhe(4-CF3) = CCCN[C@@H](Cc1ccc(C(F)(F)F)cc1)C(=O)O; NMeGly(cPent) = CN[C@H](C(=O)O)C1CCCC1; Hyp = O=C(O)[C@@H]1C[C@@H](O)CN1; NMeD = CN[C@@H](CC(=O)O)C(=O)O; NMeL = CN[C@@H](CC(C)C)C(=O)O; Ac5c = NC1(C(=O)O)CCCC1; Aze = O=C(O)[C@@H]1CCN1; Ac4c = NC1(C(=O)O)CCC1; Sar = CNCC(=O)O
By convention, pKd is the negative base-10 log of a molar concentration.

These solved cases illustrate the format of a correct answer.
Q: Supply pKd value. Item: CCC[C@H]1C(=O)N[C@@H](CC(C)C)C(=O)N(CC)CC(=O)N(C)[C@H]2C/C=C\CCN(C2=O)[C@@H](Cc2ccc(C)cc2)C(=O)N(C)CC(=O)N[C@@H](CCc2cc(F)c(C(F)(F)F)c(F)c2)C(=O)N2C[C@H](OCC)C[C@H]2C(=O)NC2(CCC2)C(=O)N(C)[C@@H](C2CCCC2)C(=O)N(C)[C@H](C(=O)N(C)C)CC(=O)N1C [PP2539]
Result: 8.37

Q: Name the recorded pKd of the item CCCN1C(=O)CN(C)C(=O)CN(C)C(=O)[C@H]([C@@H](C)CC)NC(=O)[C@H](CC(C)C)N(C)C(=O)C[C@@H](C(=O)N(C)C)N(C)C(=O)[C@H](C2CCCC2)N(C)C(=O)C2(CCC2)NC(=O)[C@@H]2C[C@@H](OCC)CN2C(=O)[C@H](CCc2ccc(C(F)(F)F)c(Cl)c2)NC(=O)CN(C)C(=O)[C@@H]1Cc1ccc(C(F)(F)F)cc1 [PP0416] ([NMeL]I[Sar][Sar][NPrPhe(4-CF3)][Sar][hPhe(3-Cl-4-CF3)][Hyp](Et)[Ac4c][NMeGly(cPent)][NMeD]-NMe2; lactam N-11) in your answer.
Result: 10.57

Could you now consider this next compound?
Q: Please give measured pKd of the following entry: CCCN1C(=O)CN(C)C(=O)[C@@H]2CCN2C(=O)[C@H]([C@@H](C)CC)NC(=O)[C@H](CC(C)C)N(C)C(=O)C[C@@H](C(=O)N(C)C)NC(=O)[C@H](C2CCCC2)N(C)C(=O)C2(CCCC2)NC(=O)[C@@H]2CCCN2C(=O)[C@H](CCc2ccc(C(F)(F)F)c(Cl)c2)NC(=O)CN(C)C(=O)[C@@H]1Cc1ccc(C(F)(F)F)cc1 [PP0373] ([NMeL]I[Aze][Sar][NPrPhe(4-CF3)][Sar][hPhe(3-Cl-4-CF3)]P[Ac5c][NMeGly(cPent)]D-NMe2; lactam N-11)
Result: 8.92

Taken from patent US20240158446A1.
